Where these numbers come from: the supplement of paper PMC4466140

The binders listed here are annotated with their SPOT peptide array binding signal intensity.
biological target: AgRvs167; experiment: SPOT peptide array binding signal intensity (averaged, normalized) (arbitrary units (background-subtracted, floor 0; scale differs between SH3 domains)); higher = stronger binding of the SH3 domain to the peptide
MEASUREMENT TYPE: SPOT peptide array binding signal intensity

| BINDER | READING QUALIFIER | MEASURED VALUE |
| --- | --- | --- |
| SHRLWLYAAPKRPKT | = | 2 |
| GRSRLFPHSPLGRSS | = | 3.42 |
| PHNPSPFFPPPDFND | = | 0.667 |
| AATTSTPPLPRRRAT | = | 591 |
| IRMPSNPALPKKLLN | = | 2.33 |
| NLKKRPPTAPQRKIS | = | 13.5 |
| NPTKSPPPPPSPSTM | ≤ | 0 |
| VNFRRIPTGPDSPPT | = | 3.17 |
| RLSRLLLSLPPESFT | = | 6.5 |
| DTFLPPPPPPPSNFE | = | 1.33 |
| VTHRLRISIPGITGR | = | 20 |
| STPQTMRQAPKRPDA | = | 0.833 |
| WRPRIVPILPYITRL | = | 2 |
| YSRKKLPVVLSKMTL | = | 3.5 |
| KIRRSSLMIPNPQQF | = | 1.67 |
| PPPPPPPPPPPLPQS | = | 4.67 |
| QGYPRQPQRPQRYHP | = | 0.333 |
| RTRRRPPPPPIPSTQ | = | 99.3 |
| YHSRRHPLALGFKYV | = | 7.67 |
